Biological target: leukotriene receptor (guinea pig lung membranes) (Cavia porcellus, UniProt Q2NNR5)
Construct: 20 mg original tissue wet weight of guinea pig lung; tissue Kuiper Rabbit Farm, Gary, IN (animals); host or cells: guinea pig lung, crude membranes
Sequence (Q2NNR5 1-340): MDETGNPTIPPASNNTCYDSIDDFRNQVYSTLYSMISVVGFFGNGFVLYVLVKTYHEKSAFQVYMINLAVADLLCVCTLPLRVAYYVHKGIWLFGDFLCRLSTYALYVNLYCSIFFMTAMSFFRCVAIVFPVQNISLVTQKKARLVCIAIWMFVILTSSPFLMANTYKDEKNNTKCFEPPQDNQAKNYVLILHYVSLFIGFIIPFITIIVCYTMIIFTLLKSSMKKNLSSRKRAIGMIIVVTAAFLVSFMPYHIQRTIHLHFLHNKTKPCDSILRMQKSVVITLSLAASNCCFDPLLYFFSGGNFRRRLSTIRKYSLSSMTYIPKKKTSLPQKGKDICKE
Experiment: Binding of ^3 H-Leukotriene D4 to Guinea Pig Lung Membranes (RBL)
Conditions: 0.2 nM ^3 H-LTD4, 60 min, 25° C.; read-out: Concentration (M) for 50.0 % Inhibition, IC (RBL)
observable: IC50 (M)

Exercise: # lookup: IC50 of O=C(Nc1ccc(CCc2ccc(O)c(O)c2)cc1)C(=O)c1sc2ccccc2c1O [Example 134]
Solution: 6.88e-05

Exercise: # lookup: IC50 of Cc1ccc(CCc2ccc(NC(=O)C3CS(=O)(=O)c4ccccc4C3=O)cc2)cc1C (centres unmarked) [Example 53]
Solution: 3.54e-06

Exercise: # lookup: IC50 of COc1ccc(CCc2ccc(NC(=O)C3=C(O)c4ccccc4S(=O)(=O)C3)cc2)c(OC)c1 [Example 30]
Solution: 2.26e-05

Exercise: # lookup: IC50 of O=C(Nc1ccc(CCc2ccccc2)cc1)C1CS(=O)(=O)c2ccccc2C1=O (centres unmarked) [Example 16]
Solution: 1.28e-05

Exercise: # lookup: IC50 of CCCCCCCCCCc1ccc(NC(=O)C2CS(=O)(=O)c3ccccc3C2=O)cc1 (centres unmarked) [Example 60]
Solution: 1.21e-05

a = Cc1ccc(CCc2ccc(NC(=O)C3CS(=O)(=O)c4ccccc4C3=O)cc2)cc1 (centres unmarked) [Example 45]
b = O=C(Nc1ccc(CCc2ccc(Cl)c(Cl)c2)cc1)C1CS(=O)(=O)c2ccccc2C1=O (centres unmarked) [Example 11]
c = O=C(Nc1ccc(CCc2ccc(O)c(O)c2)cc1)C(=O)c1sc2ccc(Cl)cc2c1O [Example 138]
d = COc1ccc(CCc2ccc(NC(=O)C3=C(O)c4ccccc4S(=O)(=O)C3)cc2)cc1OC [Example 18]
Exercise: Task field, ranking: reported IC50, descending order. Give your ranking as a list of the labels in the requested order.
Solution: c, d, a, b

P = O=C(Nc1cccc(CCc2ccc(Cl)c(Cl)c2)c1)C1=C(O)c2ccccc2S(=O)(=O)C1 [Example 76]
Q = O=C(Nc1ccc(CCc2ccc(Cl)c(Cl)c2)cc1)C(=O)C1=C(O)c2ccccc2S(=O)(=O)C1 [Example 69]
R = CCOC(=O)c1ccc(CCc2ccc(NC(=O)C3CS(=O)(=O)c4ccccc4C3=O)cc2)cc1 (centres unmarked) [Example 47]
Exercise: Arrange items by their IC50 values in increasing order. Give your ranking as a list of the labels in the requested order.
Solution: P, R, Q
(P: 3e-06 M, R: 1.11e-05 M, Q: 2.04e-05 M)
